Each recorded value in this set is attributed to patent US20240043404A1.

# Test system: RS4;11 cells
# PROTOCOL DESCRIPTION: RS4;11 cell viability assay (CellTiter Glo)
# Format: cell-based, human
# MEASUREMENT CONDITIONS: Homo sapiens, RS4-11, 48 h, 50,000 cells per well, 10% human serum, 48 hours; read-out: RS4; 11 EC50 Values
MEASURED METRIC: EC50 (µM)

The following compounds have reported results that may help.
CC1(C)CCC(CN2CCN(c3ccc(C(=O)NS(=O)(=O)c4ccc(OCC5CCOCC5)c([N+](=O)[O-])c4)c(Oc4cnc5[nH]ccc5c4)c3)CC2)=C(c2ccc(Cl)cc2)C1    0.00983
CC1(C)CC(c2ccc(Cl)cc2)=C(CN2CCN(c3ccc(C(=O)NS(=O)(=O)c4ccc(NCC5CCOCC5)c([N+](=O)[O-])c4)c(Oc4cnc5[nH]ccc5c4)c3)CC2)CO1    0.0128
CC1(C)CCC(CN2CCN(c3ccc(C(=O)NS(=O)(=O)c4cnc(NCC5CCOCC5)c([N+](=O)[O-])c4)c(Oc4cnc5[nH]ccc5c4)c3)CC2)=C(c2ccc(Cl)cc2)C1    0.0112
CC1(C)CCC(CN2CCN(c3ccc(C(=O)NS(=O)(=O)c4ccc(NC5CCN(C(CF)CF)CC5)c([N+](=O)[O-])c4)c(Oc4cnc5[nH]ccc5c4)c3)CC2)=C(c2ccc(Cl)cc2)C1    0.0295

a. CC1(C)CCC(CN2CCN(c3ccc(C(=O)NS(=O)(=O)c4ccc(OCC5(F)CCOCC5)nc4)c(Oc4cnc5[nH]ccc5c4)c3)CC2)=C(c2ccc(Cl)cc2)C1
b. CC1(C)CC(c2ccc(Cl)cc2)=C(CN2CCN(c3ccc(C(=O)NS(=O)(=O)c4ccc(OCC5COCCO5)c([N+](=O)[O-])c4)c(Oc4cnc5[nH]ccc5c4)c3)CC2)CO1 (stereo not shown)
Hi, I'm comparing a with b and wondering which one has the bigger number for EC50. Any idea? In your reply, give the label of the chosen option.
a

====

# Tested on: RS4;11 cells
# PROTOCOL DESCRIPTION: RS4;11 cell viability assay (CellTiter Glo);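 note: acute lymphoblastic leukemia line RS4,11, EC50 derived from percentage of viable cells after treatment relative to untreated controls, cell killing taken as a measure of Bcl-2 inhibition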
# Type: cell-based, human
# MEASUREMENT CONDITIONS: Homo sapiens, RS4-11, 48 h, 50,000 cells per well, 10% human serum, 48 hours; read-out: RS4; 11 EC50 Values
pEC50: −log10 of the molar value.
MEASURED METRIC: pEC50

The following molecules have reported results that may help.
CN1CCC(Nc2ccc(S(=O)(=O)NC(=O)c3ccc(N4CCN(CC5=C(c6ccc(Cl)cc6)CC(C)(C)OC5)CC4)cc3Oc3cnc4[nH]ccc4c3)cc2S(=O)(=O)C(F)(F)F)CC1 [Example 45]    8.00
CC1(C)CCC(CN2CCN(c3ccc(C(=O)NS(=O)(=O)c4ccc(OCC5COCCN5)c([N+](=O)[O-])c4)c(Oc4cnc5[nH]ccc5c4)c3)CC2)=C(c2ccc(Cl)cc2)C1 (centres unmarked) [Example 78]    7.90

I. CC1(C)CCC(CN2CCN(c3ccc(C(=O)NS(=O)(=O)c4ccc(N[C@@H]5CCN(C6CCOCC6)C5)c([N+](=O)[O-])c4)c(Oc4cnc5[nH]ccc5c4)c3)CC2)=C(c2ccc(Cl)cc2)C1 [Example 130]
II. COCCNc1ccc(S(=O)(=O)NC(=O)c2ccc(N3CCN(CC4=C(c5ccc(Cl)cc5)CC(C)(C)CC4)CC3)cc2Oc2cnc3[nH]ccc3c2)cc1S(=O)(=O)C(F)(F)F [Example 16]
III. CC1(C)CCC(CN2CCN(c3ccc(C(=O)NS(=O)(=O)c4ccc(N[C@@H]5CCOC5)c([N+](=O)[O-])c4)c(Oc4cnc5[nH]ccc5c4)c3)CC2)=C(c2ccc(Cl)cc2)C1 [Example 238]
Your job: order these 3 records by pEC50, ascending. Field: ranking. Enter the labels in the order requested.
II, III, I
